molecular target: human blood AChE (Homo sapiens, UniProt P22303); construct: 90 µL undiluted blood in a 48-wells plate; from tissue; host or cells: venous EDTA whole blood from healthy human donors, lysed and diluted in Triton X-100 buffer; assay: AChE inhibition in human donor whole blood (Ellman method); format: biochemical; settings: donor 14; read-out: IC50 Value
Sequence (P22303 32-617 isoform P22303-2 limits assumed): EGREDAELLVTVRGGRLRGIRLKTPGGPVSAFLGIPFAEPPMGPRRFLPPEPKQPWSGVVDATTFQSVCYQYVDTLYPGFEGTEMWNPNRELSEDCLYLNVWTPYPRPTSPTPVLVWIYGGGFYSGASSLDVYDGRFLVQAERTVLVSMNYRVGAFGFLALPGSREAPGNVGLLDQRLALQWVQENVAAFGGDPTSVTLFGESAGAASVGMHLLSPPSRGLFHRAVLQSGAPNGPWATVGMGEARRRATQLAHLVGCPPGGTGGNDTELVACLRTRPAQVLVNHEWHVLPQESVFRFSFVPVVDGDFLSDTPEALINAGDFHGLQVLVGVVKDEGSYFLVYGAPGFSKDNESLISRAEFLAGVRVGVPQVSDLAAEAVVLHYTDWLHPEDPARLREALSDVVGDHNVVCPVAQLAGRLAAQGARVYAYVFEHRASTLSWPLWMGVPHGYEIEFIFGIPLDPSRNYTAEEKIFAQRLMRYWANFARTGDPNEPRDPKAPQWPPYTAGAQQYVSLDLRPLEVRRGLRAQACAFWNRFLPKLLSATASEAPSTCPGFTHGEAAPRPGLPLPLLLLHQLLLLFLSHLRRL
resultType: IC50 (nM)
All answers are understood in nM, so give the number only.

Give the reported IC50 for this compound. CCOP(=O)(OCC)Oc1cc(C)nc(C(C)C)n1 [DZO, diazinon-oxon]
2800

* * *

molecular target: human blood AChE (Homo sapiens, UniProt P22303); construct: 90 µL undiluted blood in a 48-wells plate; from tissue; host or cells: venous EDTA whole blood from healthy human donors, lysed and diluted in Triton X-100 buffer; test: AChE inhibition in human donor whole blood (Ellman method); assay type: biochemical; conditions: IC50 Human, whole blood, average of 20 donors
pIC50: −log10 of the molar value.
resultType: pIC50

molecule | pIC50
COP(=S)(OC)SCN1C(=O)c2ccccc2C1=O [PM, phosmet] | < 4.52

Output measured pIC50 for this item: CCOP(=S)(OCC)Oc1nc(Cl)c(Cl)cc1Cl [CPF, Chlorpyrifos]
< 5.00

Annotate the molecule CCOP(=S)(OCC)Oc1cc(C)nc(C(C)C)n1 [DZN, diazinon] with its measured pIC50.
< 5.00

State, in one line, measured pIC50 of Cc1nc(N(C)C)nc(OC(=O)N(C)C)c1C [PI, pirimicarb]
4.70

* * *

molecular target: human blood AChE (Homo sapiens, UniProt P22303); construct: 90 µL undiluted blood in a 48-wells plate; from tissue; host or cells: venous EDTA whole blood from healthy human donors, lysed and diluted in Triton X-100 buffer; assay: AChE inhibition in human donor whole blood (Ellman method); format: biochemical; conditions: IC50 Value, donor 18
resultType: pIC50
Units for pIC50: none; it is -log10 of a concentration expressed in mol/L.

Item Cc1nc(N(C)C)nc(OC(=O)N(C)C)c1C : provide pIC50
4.66

* * *

biological target: human blood AChE (Homo sapiens); construct: 90 µL undiluted blood in a 48-wells plate; from tissue; host or cells: venous EDTA whole blood from healthy human donors, lysed and diluted in Triton X-100 buffer; assay: AChE inhibition in human donor whole blood (Ellman method); type: biochemical; details: IC50 Value, donor 4
resultType: IC50 (µM)
Field: numeric (µM). Do not append units.

Please give measured IC50 of the following entry: Cc1nc(N(C)C)nc(OC(=O)N(C)C)c1C [PI, pirimicarb]
22

* * *

target: human blood AChE (Homo sapiens); construct: 90 µL undiluted blood in a 48-wells plate; from tissue; host or cells: venous EDTA whole blood from healthy human donors, lysed and diluted in Triton X-100 buffer; experiment: AChE inhibition in human donor whole blood (Ellman method); type: biochemical; conditions: IC50 Value, donor 13
resultType: pIC50
Scale for pIC50: -log10 of concentration given in mol/L; no unit attached.

Find pIC50 for Cc1nc(N(C)C)nc(OC(=O)N(C)C)c1C on human blood AChE (Homo sapiens) and write it down.
4.72

* * *

biological target: human blood AChE (Homo sapiens, UniProt P22303); construct: 90 µL undiluted blood in a 48-wells plate; from tissue; host or cells: venous EDTA whole blood from healthy human donors, lysed and diluted in Triton X-100 buffer; test: AChE inhibition in human donor whole blood (Ellman method); type: biochemical; conditions: IC50 Value, donor 3
resultType: IC50 (µM)
Record the value in µM, omitting the unit from your answer.

Report measured IC50; entry is Cc1nc(N(C)C)nc(OC(=O)N(C)C)c1C
17
